target: GLP-1 receptors (RINm5f cell membranes) (Rattus norvegicus, UniProt P32301); construct: RINm5f cells expressing endogenous GLP-1 receptors; endogenous in cells; host or cells: RINm5f cell membranes; assay: Receptor binding assay, RBA GLP (RIN); conditions: [125I] human GLP-1 displacement
Where no end group is shown, it is not given here.

SUBSTANCE | READOUT_UNITS | IC50
HGEGTFTSDVTEYLEEEAVRLFIEWLKQGGPSSGAPPPS-NH2 [Cmpd 5129] | nM | 3
